- Tested on: TK-10 renal
- TEST: NCI tumour cell line growth inhibition, 48 h
Can you tell me GI50 for the items I'm about to list?

(Q) May I ask what GI50 has been recorded for COC(=O)[C@H](CCCCNC(=O)OCc1ccccc1)NC(=O)[C@@H](NC(=O)Nc1cc(C(F)(F)F)cc(C(F)(F)F)c1)C(C)C ?
(A) > 10 µM

(Q) Thanks! And COc1ccc(-c2nnc(Nc3nc(O)c(C4=c5cc(Br)ccc5=NC4=O)s3)o2)cc1 ?
(A) 18.9 µM

(Q) Repeat for the following compound: C(=C\c1ccc(OCC2CO2)cc1)/C1=NCOC1 (stereo not given)
(A) 16.2 µM

(Q) Now give it for CCOP(=O)(OCC)C(NC(c1ccccc1)c1ccccc1)c1ccc(C(C)C)cc1 (stereo not given) too.
(A) 3.32 µM

(Q) Same lookup for CC[Si](CC)(CC)OC1[C@@H](O[Si](CC)(CC)CC)[C@@H](CNC(=O)NC)O[C@H]1n1cnc2c(NC(=O)Nc3ccccc3)ncnc21 (stereo not given in full) , please.
(A) 2.65 µM

Values from PubChem BioAssay (NCI)
